SYSTEM: Metabotropic glutamate receptor 8 (Rattus norvegicus) (UniProt P70579)
Sequence (P70579 whole entry, looked up): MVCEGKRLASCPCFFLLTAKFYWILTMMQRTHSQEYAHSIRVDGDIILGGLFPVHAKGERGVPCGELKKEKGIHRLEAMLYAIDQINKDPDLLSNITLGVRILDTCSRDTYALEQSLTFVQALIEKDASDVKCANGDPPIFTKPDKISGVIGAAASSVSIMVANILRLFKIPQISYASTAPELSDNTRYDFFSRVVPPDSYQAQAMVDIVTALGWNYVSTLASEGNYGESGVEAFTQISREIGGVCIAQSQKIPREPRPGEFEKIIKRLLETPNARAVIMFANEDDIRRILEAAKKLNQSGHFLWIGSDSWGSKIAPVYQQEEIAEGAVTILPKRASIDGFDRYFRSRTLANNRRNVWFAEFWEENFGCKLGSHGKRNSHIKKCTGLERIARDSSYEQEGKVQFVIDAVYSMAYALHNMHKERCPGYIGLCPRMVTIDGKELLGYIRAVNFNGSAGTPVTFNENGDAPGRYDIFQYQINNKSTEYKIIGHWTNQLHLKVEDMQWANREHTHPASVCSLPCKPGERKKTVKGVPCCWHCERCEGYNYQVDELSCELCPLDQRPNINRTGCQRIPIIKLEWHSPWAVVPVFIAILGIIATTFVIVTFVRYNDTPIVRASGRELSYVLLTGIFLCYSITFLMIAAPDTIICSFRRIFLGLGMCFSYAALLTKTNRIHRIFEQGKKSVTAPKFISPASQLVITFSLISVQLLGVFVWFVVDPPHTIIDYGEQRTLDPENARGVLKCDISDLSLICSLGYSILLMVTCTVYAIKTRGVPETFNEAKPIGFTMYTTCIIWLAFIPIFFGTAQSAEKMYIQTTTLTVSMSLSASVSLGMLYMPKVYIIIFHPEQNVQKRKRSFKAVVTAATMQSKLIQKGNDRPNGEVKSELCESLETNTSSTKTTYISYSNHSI
PROTOCOL: mGluR8 Gi/Go-coupled signaling modulation – cell-based, rat, thallium flux, HTS, primary screen (AID 488969)
SETUP_CONDITIONS: HEK293 rat mGluR8, GIRK thallium flux, FluoZin2; at 10 µM; stronger effect = higher value; submaximal glutamate (EC20) added with thallium
Whole data set: some 110,000 compounds, median “z-score” near -0.1, cut for the highest 2% near 2. The list comes from a sample in which the highest values are over-represented; it also holds close analogues and randomly drawn compounds.
RESULT_TYPE: z-score

INSERT INTO assay_data (compound, reported_result) VALUES
  ('COc1ccc(OC)c(CNC(=O)CCN2C(=O)COc3ccccc32)c1', 0.307),
  ('Cc1ccc([N+](=O)[O-])cc1NC(=O)c1ccc(C(C)(C)C)cc1', -1.53),
  ('O=C(CSc1cccc2cccc(Cl)c12)NCc1cccs1', 3.5),
  ('C=C(C)C1CC=C(C)/C(=N/NC(=O)CNc2ccc(C)cc2C)C1 (stereo not given)', -0.284),
  ('COc1ccc(CC(=O)n2c(CC#N)nc3ccccc32)cc1OC', 0.0175),
  ('Cc1ccc(NC(=O)c2ccncc2)cc1[N+](=O)[O-]', -0.142),
  ('CCCCNC(=O)/C(C#N)=C/c1ccc(-c2ccc(S(=O)(=O)N3CCOCC3)cc2)o1', 0.164),
  ('COn1c(=O)c(-c2ccc(Cl)cc2)[n+]([O-])c2ccccc21', -0.503),
  ('Cc1cc(C)c(S(=O)(=O)c2ccccc2C)c(Cl)n1', -0.119),
  ('O=C(CSc1ccc2ccccc2c1)NCc1cccs1', 0.0417),
  ('Clc1ccc(-c2n[nH]c3c2CCC3)c(Cl)c1', 0.0993),
  ('CCNC(=S)NN(c1ccccc1)c1ccccc1', 0.837),
  ('Cc1c(C2Nc3ccccc3NC3=C2C(=O)CC(C)(C)C3)cnn1C (stereo not given)', 4.64),
  ('CNC(=S)NN(c1ccccc1)c1ccccc1', -0.0349),
  ('Cc1csc(SCC(=O)NCc2cccs2)n1', 0.824),
  ('CCN1C(=O)c2cccc3cccc1c23', -0.389),
  ('CCN(CC)C(=O)n1nc(C)c(CN2C(=O)c3ccccc3C2=O)c1C', -0.151),
  ('C=C(C)C1CC=C(C)/C(=N/NC(=S)Nc2ccccc2)C1 (stereo not given)', 2.35),
  ('O=C(Cn1nnc(-c2ccccc2)n1)OCc1csc(-c2ccccc2)n1', -0.49),
  ('C=C(C)[C@H]1CC=C(C)/C(=N/NC(=O)CNc2ccccc2OC)C1', 0.284),
  ('CCOc1ccc(N2C(=O)CC(SC(=NC)Nc3ccc(F)cc3)C2=O)cc1 (stereo not given)', 3.7),
  ('CCOCCCNC(=O)/C(C#N)=C/c1ccc(-c2ccc(S(=O)(=O)N3CCOCC3)cc2)o1', 2.32),
  ('Cc1ccc(C(=O)NCCNc2ccc(Cl)cc2[N+](=O)[O-])o1', -0.083),
  ('O=C(NCC1CCCO1)C1CCN(S(=O)(=O)c2cccc3cccnc23)CC1 (stereo not given)', -0.104),
  ('O=C(NC(=S)NCC1CCCO1)c1ccc([N+](=O)[O-])cc1 (stereo not given)', -0.067),
  ('CCN(CC)CCCNC(=O)c1ccc(Cl)c(S(=O)(=O)Nc2ccccc2OC)c1', -0.0127),
  ('CC1(C)CC(=O)C2=C(C1)Nc1ccccc1NC2c1nc2ccccc2[nH]1 (stereo not given)', -0.113),
  ('CCN(CC)CCNC(=O)c1ccc(Cl)c(S(=O)(=O)Nc2ccccc2OC)c1', 0.323),
  ('C=C(C)C1CC=C(C)/C(=N\NC(=O)CCc2ccccc2)C1 (stereo not given)', -0.339),
  ('C=C(C)C1CC=C(C)/C(=N\NC(=O)CNc2ccccc2OC)C1 (stereo not given)', 0.0831),
  ('N#Cc1cc2c(nc1SCC(N)=O)CCCCC2', -0.0763),
  ('CCN(CC)CCNC(=O)c1ccc(NC(=O)c2ccc(Cl)c(S(=O)(=O)Nc3ccccc3OC)c2)cc1', 2.14),
  ('O=C(Nc1ccc(Br)cc1F)C1CCCO1 (stereo not given)', -0.0425),
  ('C=C(C)C1CC=C(C)/C(=N/NC(=O)COc2ccccc2C)C1 (stereo not given)', 1),
  ('CCOc1ccc(N2C(=O)CC(SC(=NC)Nc3cccc(F)c3)C2=O)cc1 (stereo not given)', -0.588),
  ('CCCOc1ccc(N2C(=O)CC(SC(=NC)Nc3ccc(F)cc3)C2=O)cc1 (stereo not given)', -0.0553),
  ('CC(C)CNC(=S)NC(=O)c1ccc([N+](=O)[O-])cc1', 6.28),
  ('C=C(C)C1CC=C(C)/C(=N\NC(=S)Nc2ccc(C)cc2)C1 (stereo not given)', 0.799),
  ('CC(C)C(=O)Nc1cccc(NC(=S)NC(=O)c2ccc([N+](=O)[O-])cc2)c1', -0.0455),
  ('CCC(=O)NC(c1cccs1)c1cc([N+](=O)[O-])c2cccnc2c1O (stereo not given)', -0.0253),
  ('CC(=O)NC(c1cccs1)c1cc([N+](=O)[O-])c2cccnc2c1O (stereo not given)', -1.44),
  ('CCCCNC(=S)NC(=O)c1ccc([N+](=O)[O-])cc1', 7.01),
  ('C=C(C)C1CC=C(C)/C(=N/NC(=O)COc2ccccc2Cl)C1 (stereo not given)', 12.4),
  ('C=C(C)C1CC=C(C)/C(=N/NC(=O)CNc2ccc(OCC)cc2)C1 (stereo not given)', 1.99),
  ('Cc1ccc(C(=O)N/C(=C/c2cccc([N+](=O)[O-])c2)C(=O)NC(C)C)cc1', -0.0623);

---

// reported z-score for each item listed
SYSTEM: Metabotropic glutamate receptor 8 (Rattus norvegicus) (UniProt P70579)
PROTOCOL: mGluR8 Gi/Go-coupled signaling modulation – cell-based, rat, thallium flux, HTS, primary screen (AID 488969)
SETUP_CONDITIONS: HEK293 rat mGluR8, GIRK thallium flux, FluoZin2; at 10 µM; stronger effect = higher value; submaximal glutamate (EC20) added with thallium
In all, about 110,000 compounds were measured (“z-score”: median about -0.1, highest 2% from about 2 on). The sample as a whole holds a higher share of the highest values than the screen did.
RESULT_TYPE: z-score

INSERT INTO results (molecule, reported_result) VALUES
  ('O=C(Cn1[nH]c(=O)c2ccccc2c1=O)NC1CCCCCC1', 0.0122),
  ('Cc1cccc(SCc2noc(C(=O)NC(C)C)c2C(=O)O)c1', -0.0231),
  ('CCS(=O)CCSC(=N)N (stereo unspecified)', -0.0992),
  ('CC(C)C(NC(=O)C1CCCCC1)C(=O)Nc1ccncc1 (stereo unspecified)', 0.244),
  ('CC(C)(C)NC(=O)/C(=C/c1ccco1)c1ccccc1', -0.0597),
  ('C(=C\c1ccccc1)/CSc1nnc(-c2ccccc2)n1Cc1ccco1', -0.701),
  ('O=C(Cn1c(CC(=O)N2CCOCC2)nc2ccccc21)Nc1ccc2c(c1)OC(F)(F)O2', 1.15),
  ('CC(C)NC(=O)/C(=C/c1ccco1)c1ccccc1', 2.43),
  ('Cc1cc2n(n1)C(c1cn(-c3ccccc3)nc1C)Nc1ccccc1-2 (stereo unspecified)', -2.98),
  ('CC(C)=C1C2CCC1C1C(=O)N(c3nc(-c4ccc(C(C)C)cc4)c(C)s3)C(=O)C21 (stereo unspecified)', -0.0235),
  ('Cc1csc(NC(=O)C2CCCC2)n1', 0.0786);

---

SYSTEM: Metabotropic glutamate receptor 8 (Rattus norvegicus) (UniProt P70579)
PROTOCOL: mGluR8 Gi/Go-coupled signaling modulation – cell-based, rat, thallium flux, HTS, primary screen (AID 488969)
SETUP_CONDITIONS: HEK293 rat mGluR8, GIRK (G protein-gated inwardly rectifying potassium channel) thallium flux, FluoZin2; at 10 µM; stronger effect = higher value; submaximal glutamate (EC20) added with thallium
Whole data set: some 110,000 compounds, median “z-score” near -0.1, cut for the highest 2% near 2. Shown is part of a subset that was picked to be rich in the highest values.
RESULT_TYPE: z-score

INSERT INTO assay_data (compound, reported_result) VALUES
  ('CCc1ccc(C(C)NC(=O)c2cc(C)oc2C)cc1 (centres undefined)', -0.386),
  ('COc1ccc(OCC(O)Cn2c(Nc3ccccc3)nc3c2c(=O)n(C)c(=O)n3C)cc1 (centres undefined)', -0.45),
  ('COc1ccc(/C=N/OCC(=O)Nc2nc3ccccc3s2)cc1', -0.132),
  ('O=C(Nc1ccccc1F)c1ccc(-n2cncn2)nc1', -0.0684),
  ('Nc1cc(=O)[nH]c(SCc2cccc(Cl)c2)n1', -0.406),
  ('CCc1cccc(NC(=O)CN(c2ccc(OC)cc2)S(=O)(=O)c2c(C)n[nH]c2C)c1', 0.317),
  ('Clc1cccc(CSc2nc3ccncc3[nH]2)c1', 9.69),
  ('O=C(Nc1ccccc1)c1ccc(CSc2ccccn2)cc1', -0.0973),
  ('CCOC(=O)c1ccc2nc(NC(=O)c3ccco3)sc2c1', -0.0743),
  ('CC(C)c1nc(=S)c2ccccc2[nH]1', 13.7),
  ('COCCn1c(C)cc(C(=O)COC(=O)c2cncc(Br)c2)c1C', 0.145),
  ('O=C(CSc1nc2ccccc2[nH]1)Nc1ccc2c(c1)CCC2', -0.809),
  ('O=C(CNC(=O)c1cccs1)NC1=NCCS1', 0.647),
  ('CC(=O)c1ccccc1NC(=O)COC(=O)c1ccccc1NC(=O)c1ccccc1', 0.161),
  ('O=C(CSc1nc2ccc(Cl)cc2[nH]1)Nc1ccc2c(c1)CCC2', 3.89),
  ('S=c1nc[nH]c2c1[nH]c1ccccc12', 0.0879),
  ('O=S(=O)(NCC1CCCO1)c1ccc(S(=O)(=O)N2CCc3ccccc3C2)cc1 (centres undefined)', 0.1),
  ('Cc1cccc(C(=O)Nc2ccccc2C(=O)OCC(=O)Nc2ccc(C#N)cc2)c1', 2.11),
  ('COc1ccc2nc(SCC(=O)Nc3ccc4c(c3)CCC4)[nH]c2c1', 0.226),
  ('CC(C)N1CC(C(=O)Nc2ccc(Br)c(Cl)c2)CC1=O (centres undefined)', 0.0942),
  ('COc1cc(O)c(C(C)=O)cc1OC', 0.68),
  ('COc1ccc(C(C)=O)cc1COC(=O)Cc1n[nH]c(=O)c2ccccc12', -0.504),
  ('Cc1ccc(NC(=O)COC(=O)c2ccccc2Nc2ccccc2)cc1', -0.179),
  ('Cc1ccc2nc(SCC(=O)Nc3ccc4c(c3)OCCO4)[nH]c2c1', -0.404);
